Target: BRM (Homo sapiens, UniProt P51531)
Construct: In-Cell Western Screen of BRM Degradation in SW1573 Cells; endogenous in cells; host or cells: SW1573
Sequence (P51531 whole entry): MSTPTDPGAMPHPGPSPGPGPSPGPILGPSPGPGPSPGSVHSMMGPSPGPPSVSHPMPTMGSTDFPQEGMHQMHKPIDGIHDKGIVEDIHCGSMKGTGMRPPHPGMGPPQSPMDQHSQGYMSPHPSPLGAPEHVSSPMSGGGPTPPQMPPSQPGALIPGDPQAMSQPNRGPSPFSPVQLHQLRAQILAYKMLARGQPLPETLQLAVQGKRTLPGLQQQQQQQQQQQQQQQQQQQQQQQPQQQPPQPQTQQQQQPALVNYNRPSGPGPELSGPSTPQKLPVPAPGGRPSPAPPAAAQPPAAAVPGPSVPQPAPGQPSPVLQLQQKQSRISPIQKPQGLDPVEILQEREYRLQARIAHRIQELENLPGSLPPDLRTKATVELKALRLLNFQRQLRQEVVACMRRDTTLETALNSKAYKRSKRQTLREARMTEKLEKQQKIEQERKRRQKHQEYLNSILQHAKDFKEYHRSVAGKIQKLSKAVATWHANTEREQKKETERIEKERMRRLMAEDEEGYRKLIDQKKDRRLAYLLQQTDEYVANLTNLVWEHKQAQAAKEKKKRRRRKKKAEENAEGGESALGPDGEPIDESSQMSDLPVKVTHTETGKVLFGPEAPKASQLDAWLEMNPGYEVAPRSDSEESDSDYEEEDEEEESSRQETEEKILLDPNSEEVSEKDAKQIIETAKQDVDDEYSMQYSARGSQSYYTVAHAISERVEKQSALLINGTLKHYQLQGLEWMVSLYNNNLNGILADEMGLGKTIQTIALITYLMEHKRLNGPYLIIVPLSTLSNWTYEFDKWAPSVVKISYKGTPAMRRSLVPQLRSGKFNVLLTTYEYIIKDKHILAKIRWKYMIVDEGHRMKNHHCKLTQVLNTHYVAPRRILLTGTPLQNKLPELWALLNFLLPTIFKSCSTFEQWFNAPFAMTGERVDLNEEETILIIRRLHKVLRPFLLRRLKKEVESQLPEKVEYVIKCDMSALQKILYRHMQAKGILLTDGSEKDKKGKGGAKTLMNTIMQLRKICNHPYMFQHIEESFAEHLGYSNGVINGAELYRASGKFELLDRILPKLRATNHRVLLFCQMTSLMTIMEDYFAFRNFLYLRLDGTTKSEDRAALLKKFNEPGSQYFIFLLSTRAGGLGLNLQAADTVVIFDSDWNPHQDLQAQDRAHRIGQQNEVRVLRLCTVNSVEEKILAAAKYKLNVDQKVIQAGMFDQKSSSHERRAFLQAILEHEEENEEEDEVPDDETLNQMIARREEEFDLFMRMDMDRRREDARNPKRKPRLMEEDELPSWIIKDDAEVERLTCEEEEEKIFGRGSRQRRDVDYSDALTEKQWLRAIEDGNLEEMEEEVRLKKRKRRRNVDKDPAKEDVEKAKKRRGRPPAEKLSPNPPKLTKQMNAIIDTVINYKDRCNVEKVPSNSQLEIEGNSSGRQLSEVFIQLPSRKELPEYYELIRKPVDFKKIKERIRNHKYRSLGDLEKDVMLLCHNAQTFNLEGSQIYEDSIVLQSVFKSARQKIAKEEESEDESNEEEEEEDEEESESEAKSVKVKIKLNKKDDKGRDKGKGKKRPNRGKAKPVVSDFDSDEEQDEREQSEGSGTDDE
Test: In-cell Western screen of BRM degradation in SW1573 cells (Dmax and DC50)
Assay type: cell-based
Settings: BRM degradation, SW1573 cells; when tested at the top concentration of between 0.3 and 10 μM; read-out: Dmax (%) (% degraded)

{"molecule": "Cc1ncsc1-c1ccc(CNC(=O)[C@@H]2C[C@@H](O)CN2C(=O)[C@@H](NC(=O)COCCOCCOCCOC/C=C/c2cc(N3C4CCC3CN(c3cc(-c5ccccc5O)nnc3N)C4)ccn2)C(C)(C)C)cc1 [compound 52]", "tested system": "BRM (Homo sapiens, UniProt P51531)", "Dmax": "> 75%"}
{"molecule": "Cc1ncsc1-c1ccc(CNC(=O)[C@@H]2C[C@@H](O)CN2C(=O)[C@H](c2cc(OCCOCCOCCOCCOc3cc(N4C5CCC4CN(c4cc(-c6ccccc6O)nnc4N)C5)ccn3)no2)C(C)C)cc1 [compound 29]", "tested system": "BRM (Homo sapiens, UniProt P51531)", "Dmax": "> 75%"}
{"molecule": "Cc1nccn1-c1ccc([C@H](C)NC(=O)[C@@H]2C[C@@H](O)CN2C(=O)[C@@H](c2cc(OCCN3CCN(CCOc4cc(N5C6CCC5CN(c5cc(-c7ccccc7O)nnc5N)C6)ccn4)CC3)no2)C(C)C)cc1 [compound 76]", "tested system": "BRM (Homo sapiens, UniProt P51531)", "Dmax": "> 75%"}
{"molecule": "Cc1ncsc1-c1ccc([C@H](C)NC(=O)[C@@H]2C[C@@H](O)CN2C(=O)[C@@H](NC(=O)Cc2ccc(N3CCN(CCO[C@H]4C[C@H](Oc5cc(N6C7CCC6CN(c6cc(-c8ccccc8O)nnc6N)C7)ccn5)C4)CC3)nc2)C(C)(C)C)cc1 [compound 58]", "tested system": "BRM (Homo sapiens, UniProt P51531)", "Dmax": "50 to 75%"}

###

Target: BRM (Homo sapiens, UniProt P51531)
Construct: In-Cell Western Screen of BRM Degradation in SW1573 Cells; endogenous in cells; host or cells: SW1573
Experiment: In-cell Western screen of BRM degradation in SW1573 cells (Dmax and DC50)
Format: cell-based
Conditions: BRM degradation, SW1573 cells; Table 2D; read-out: *DC50
value type: DC50

{"molecule": "Cc1ncsc1-c1ccc([C@H](C)NC(=O)[C@@H]2C[C@@H](O)CN2C(=O)[C@@H](c2cc(N3CCC(OC4CCN([C@H]5C[C@H](CN6CCOC7(CCN(c8cc(-c9ccccc9O)nnc8N)CC7)C6)C5)CC4)CC3)no2)C(C)C)cc1", "value type": "DC50", "reading": "< 2.5 nM"}
{"molecule": "Cc1ncsc1-c1ccc([C@H](C)NC(=O)[C@@H]2C[C@@H](O)CN2C(=O)[C@H](c2cc(OCC[C@@H]3CCN(C[C@H]4C[C@H](Oc5cc(N6C7CCC6CN(c6cc(-c8ccccc8O)nnc6N)C7)ccn5)C4)C[C@H]3C)no2)C(C)C)cc1 (racemic)", "value type": "DC50", "reading": "2.5 to 10 nM"}

###

Molecular target: BRM (Homo sapiens, UniProt P51531)
Construct: In-Cell Western Screen of BRM Degradation in SW1573 Cells; endogenous in cells; host or cells: SW1573
Assay: In-cell Western screen of BRM degradation in SW1573 cells (Dmax and DC50)
Assay type: cell-based
Details: BRM degradation, SW1573 cells; Table 2D; read-out: **Dmax (%) (% degraded)
# Dmax per record follows

{"compound": "Cc1nccn1-c1ccc([C@H](C)NC(=O)[C@@H]2C[C@@H](O)CN2C(=O)[C@@H](c2cc(N3CCC(CN4CCC(O[C@H]5C[C@H](Oc6cc(N7C8CCC7CN(c7cc(-c9ccccc9O)nnc7N)C8)ccn6)C5)CC4)CC3)no2)C(C)C)cc1", "Dmax": "> 75%"}
{"compound": "Cc1ncsc1-c1ccc([C@H](C)NC(=O)[C@@H]2C[C@@H](O)CN2C(=O)[C@@H](c2cc(OCC[C@H]3CCN(C[C@H]4C[C@H](Oc5cc(N6C7CCC6CN(c6cc(-c8ccccc8O)nnc6N)C7)ccn5)C4)C[C@H]3C)no2)C(C)C)cc1 (racemic)", "Dmax": "> 75%"}

###

Target: BRM (Homo sapiens, UniProt P51531)
Construct: In-Cell Western Screen of BRM Degradation in SW1573 Cells; endogenous in cells; host or cells: SW1573
Assay: In-cell Western screen of BRM degradation in SW1573 cells (Dmax and DC50)
Format: cell-based
Details: BRM degradation, SW1573 cells; read-out: DC50
# DC50 per record follows

{"compound": "CC(C)[C@@H](C(=O)N1C[C@H](O)C[C@H]1C(=O)N[C@@H](C)c1ccc(C(F)(F)F)cc1)c1cc(OCCN2CCC(O[C@H]3C[C@H](Oc4cc(N5C6CCC5CN(c5cc(-c7ccccc7O)nnc5N)C6)ccn4)C3)CC2)no1", "DC50": "> 30 nM"}
{"compound": "Cc1ncsc1-c1ccc([C@H](C)NC(=O)[C@@H]2C[C@@H](O)CN2C(=O)[C@@H](c2cc(OCCN3CC[C@@H](O[C@H]4C[C@H](Oc5cc(N6C7CCC6CN(c6cc(-c8ccccc8O)nnc6N)C7)ccn5)C4)C[C@@H]3C)no2)C(C)C)cc1", "DC50": "< 2.5 nM"}
{"compound": "Cc1ncsc1-c1ccc([C@H](CO)NC(=O)[C@@H]2C[C@@H](O)CN2C(=O)[C@@H](c2cc(OCCN3CCC(O[C@H]4C[C@H](Oc5cc(N6C7CCC6CN(c6cc(-c8ccccc8O)nnc6N)C7)ccn5)C4)CC3)no2)C(C)C)cc1", "DC50": "< 2.5 nM"}
{"compound": "Cc1ncsc1-c1ccc([C@H](C)NC(=O)[C@@H]2C[C@@H](O)CN2C(=O)[C@@H](c2cc(N3CCC(CN4CCC(OC5CC(Oc6cc(N7C8CC[C@@H]7CN(c7cc(-c9ccccc9O)nnc7N)C8)ccn6)C5)CC4)CC3)no2)C(C)C)cc1O (some centres unmarked)", "DC50": "< 2.5 nM"}
{"compound": "COc1cc(-c2scnc2C)ccc1[C@H](C)NC(=O)[C@@H]1C[C@@H](O)CN1C(=O)[C@@H](c1cc(OCCN2CCC(O[C@H]3C[C@H](Oc4cc(N5C6CCC5CN(c5cc(-c7ccccc7O)nnc5N)C6)ccn4)C3)CC2)no1)C(C)C", "DC50": "< 2.5 nM"}
{"compound": "Cc1ncsc1-c1ccc([C@H](C)NC(=O)[C@@H]2C[C@@H](O)CN2C(=O)[C@@H](NC(=O)COCCOCCOCCCCN2CCOC3(CCN(c4cc(-c5ccccc5O)nnc4N)CC3)C2)C(C)(C)C)cc1", "DC50": "10 to 30 nM"}
{"compound": "Cc1ncsc1-c1ccc([C@H](C)NC(=O)[C@@H]2C[C@@H](O)CN2C(=O)[C@@H](c2cc(OCCN3C4CC3CN(CCOc3cc(N5C6CCC5CN(c5cc(-c7ccccc7O)nnc5N)C6)ccn3)C4)no2)C(C)C)cc1", "DC50": "2.5 to 10 nM"}
{"compound": "Cc1ncsc1-c1ccc([C@H](C)NC(=O)[C@@H]2C[C@@H](O)CN2C(=O)[C@@H](c2cc(OCCN3CC[C@H](O[C@H]4C[C@H](Oc5cc(N6C7CCC6CN(c6cc(-c8ccccc8O)nnc6N)C7)ccn5)C4)C[C@H]3C)no2)C(C)C)cc1", "DC50": "< 2.5 nM"}
{"compound": "Cc1cc([C@@H](C(=O)N2C[C@H](O)C[C@H]2C(=O)N[C@@H](C)c2ccc(-c3scnc3C)cc2)[C@@H](C)COCCOc2cc(N3C4CCC3CN(c3cc(-c5ccccc5O)nnc3N)C4)ccn2)on1", "DC50": "2.5 to 10 nM"}
{"compound": "CC(C)C(C(=O)N1C[C@H](O)C[C@H]1C(=O)N[C@@H](C)c1ccc(-c2scnc2CO)cc1)c1cc(OCCN2CCN(CCOc3cc(N4C5CCC4CN(c4cc(-c6ccccc6O)nnc4N)C5)ccn3)CC2)no1 (some centres unmarked)", "DC50": "< 2.5 nM"}
{"compound": "CC(C)[C@H](C(=O)N1C[C@H](O)C[C@H]1C(=O)N[C@@H](C)c1ccc(-n2ccnn2)cc1)c1cc(OCCN2CCN(CCOc3cc(N4C5CCC4CN(c4cc(-c6ccccc6O)nnc4N)C5)ccn3)CC2)no1", "DC50": "> 30 nM"}

###

Biological target: BRM (Homo sapiens)
Construct: In-Cell Western Screen of BRM Degradation in SW1573 Cells; endogenous in cells; host or cells: SW1573
Experiment: In-cell Western screen of BRM degradation in SW1573 cells (Dmax and DC50)
Format: cell-based
Settings: BRM degradation, SW1573 cells; read-out: DC50
# DC50 per record follows

{"compound": "Cc1ncsc1-c1ccc([C@H](C)NC(=O)[C@@H]2C[C@@H](O)CN2C(=O)[C@@H](c2cc(N3CCC(C(C)N4CCC(O[C@H]5C[C@H](Oc6cc(N7C8CCC7CN(c7cc(-c9ccccc9O)nnc7N)C8)ccn6)C5)CC4)CC3)no2)C(C)C)cc1 (stereo partly drawn)", "DC50": "< 2.5 nM"}
{"compound": "Cc1ncsc1-c1ccc([C@H](C)NC(=O)[C@@H]2C[C@@H](O)CN2C(=O)[C@@H](c2cc(OCCOCCOCCCCN3CCC4(CC3)CCN(c3cc(-c5ccccc5O)nnc3N)CC4)no2)C(C)C)cc1", "DC50": "2.5 to 10 nM"}
{"compound": "COc1cc(-c2scnc2C)ccc1[C@H](C)NC(=O)[C@@H]1C[C@@H](O)CN1C(=O)[C@H](c1cc(OCCN2CCC(O[C@H]3C[C@H](Oc4cc(N5C6CCC5CN(c5cc(-c7ccccc7O)nnc5N)C6)ccn4)C3)CC2)no1)C(C)C", "DC50": "10 to 30 nM"}
{"compound": "Cc1ncsc1-c1ccc(CNC(=O)[C@@H]2C[C@@H](O)CN2C(=O)[C@@H](NC(=O)COCCOCCOCCOCCOCCOCCn2cc(-c3cc(-c4ccccc4O)nnc3N)cn2)C(C)(C)C)cc1", "DC50": "> 30 nM"}
{"compound": "Cc1ncoc1-c1ccc([C@H](C)NC(=O)[C@@H]2C[C@@H](O)CN2C(=O)[C@@H](c2cc(OCCN3CCC(O[C@H]4C[C@H](Oc5cc(N6C7CCC6CN(c6cc(-c8ccccc8O)nnc6N)C7)ccn5)C4)CC3)no2)C(C)C)cc1", "DC50": "< 2.5 nM"}
{"compound": "Cc1ncsc1-c1ccc(CNC(=O)[C@@H]2C[C@@H](O)CN2C(=O)[C@@H](NC(=O)COCCCc2ccc(C(C)n3cc(-c4cc(-c5ccccc5O)nnc4N)cn3)cc2)C(C)(C)C)cc1 (stereo partly drawn)", "DC50": "2.5 to 10 nM"}
{"compound": "Cc1ncsc1-c1ccc([C@H](C)NC(=O)[C@@H]2C[C@@H](O)CN2C(=O)[C@@H](c2cc(N3CCC(CN4CCC(O[C@H]5C[C@H](C#Cc6cc(N7C8CCC7CN(c7cc(-c9ccccc9O)nnc7N)C8)ccn6)C5)CC4)CC3)no2)C(C)C)cc1", "DC50": "< 2.5 nM"}
{"compound": "CC(=O)NCC#Cc1ncsc1-c1ccc([C@H](C)NC(=O)[C@@H]2C[C@@H](O)CN2C(=O)C(c2cc(OCCN3CCN(CCOc4cc(N5C6CCC5CN(c5cc(-c7ccccc7O)nnc5N)C6)ccn4)CC3)no2)C(C)C)cc1 (stereo partly drawn)", "DC50": "2.5 to 10 nM"}
{"compound": "Cc1ncsc1-c1ccc([C@H](C)NC(=O)[C@@H]2C[C@@H](O)CN2C(=O)[C@H](c2onc(OCCN3CCC(O[C@H]4C[C@H](Oc5cc(N6C7CCC6CN(c6cc(-c8ccccc8O)nnc6N)C7)ccn5)C4)CC3)c2F)C(C)C)cc1", "DC50": "> 30 nM"}
